# IC50 per record follows
Tested on: RPMI8226 (multiple myeloma)
testProtocol: MTT multiple myeloma cell growth inhibition, 72 h
Assay type: cell-based, human
conditionNotes: Homo sapiens, RPMI-8226; RPMI8226, 72 h; read-out: IC50
Description: Multiple myeloma and lymphoma cell lines: RPMI8226 (multiple myeloma), purchased from Fuxiang Bio-tech Co. Ltd., Shanghai, China. Obtaining 6000 well-growing leukemia cells and inoculating them into wells of a 96-well cell culture plate. The culture medium is the 1640 cell culture medium containing 10% fetal bovine serum. […] Then the viable cell concentration is determined by the MTT method.
measuredParameter: IC50

[[record]]
molecule = "COCCCNC(=O)C[C@](O)(CCCC(C)(C)O)C(=O)O[C@@H]1C(OC)=C[C@]23CCCN2CCc2cc4c(cc2[C@H]13)OCO4"
targetortestsystem = "RPMI8226 (multiple myeloma)"
result = "4.92 µg/mL"

[[record]]
molecule = "COC1=C[C@]23CCCN2CCc2cc4c(cc2[C@@H]3[C@@H]1OC(=O)[C@@](O)(CCCC(C)(C)O)CC(=O)N1CCN(c2ccc(F)cc2)CC1)OCO4"
targetortestsystem = "RPMI8226 (multiple myeloma)"
result = "0.17 µg/mL"

[[record]]
molecule = "COC(=O)C[C@](O)(CCCC(C)(C)O)C(=O)O[C@@H]1C(OC)=C[C@]23CCCN2CCc2cc4c(cc2[C@H]13)OCO4 [HHT, reference compound]"
targetortestsystem = "RPMI8226 (multiple myeloma)"
result = "0.006 µg/mL"

[[record]]
molecule = "COC1=C[C@]23CCCN2CCc2cc4c(cc2[C@@H]3[C@@H]1OC(=O)[C@@](O)(CCCC(C)(C)O)CC(=O)N1CCCCC1C)OCO4 (some centres unmarked)"
targetortestsystem = "RPMI8226 (multiple myeloma)"
result = "1 µg/mL"

[[record]]
molecule = "COC1=C[C@]23CCCN2CCc2cc4c(cc2[C@@H]3[C@@H]1OC(=O)[C@@](O)(CCCC(C)(C)O)CC(=O)N1CCC(O)CC1)OCO4"
targetortestsystem = "RPMI8226 (multiple myeloma)"
result = "16 µg/mL"

[[record]]
molecule = "COC1=C[C@]23CCCN2CCc2cc4c(cc2[C@@H]3[C@@H]1OC(=O)[C@@](O)(CCCC(C)(C)O)CC(=O)N1CCCC(O)C1)OCO4 (some centres unmarked)"
targetortestsystem = "RPMI8226 (multiple myeloma)"
result = "> 16 µg/mL"

[[record]]
molecule = "COC1=C[C@]23CCCN2CCc2cc4c(cc2[C@@H]3[C@@H]1OC(=O)[C@@](O)(CCCC(C)(C)O)CC(=O)N1CCN(C)CC1)OCO4"
targetortestsystem = "RPMI8226 (multiple myeloma)"
result = "3.6 µg/mL"

[[record]]
molecule = "COC1=C[C@]23CCCN2CCc2cc4c(cc2[C@@H]3[C@@H]1OC(=O)[C@@](O)(CCCC(C)(C)O)CC(=O)NCc1ccc(C)o1)OCO4"
targetortestsystem = "RPMI8226 (multiple myeloma)"
result = "0.092 µg/mL"

[[record]]
molecule = "COC1=C[C@]23CCCN2CCc2cc4c(cc2[C@@H]3[C@@H]1OC(=O)[C@@](O)(CCCC(C)(C)O)CC(=O)N1CCC(N(C)C)CC1)OCO4"
targetortestsystem = "RPMI8226 (multiple myeloma)"
result = "0.1 µg/mL"

[[record]]
molecule = "COC1=C[C@]23CCCN2CCc2cc4c(cc2[C@@H]3[C@@H]1OC(=O)[C@@](O)(CCCC(C)(C)O)CC(=O)N1CCN(CCO)CC1)OCO4"
targetortestsystem = "RPMI8226 (multiple myeloma)"
result = "16 µg/mL"

[[record]]
molecule = "COC1=C[C@]23CCCN2CCc2cc4c(cc2[C@@H]3[C@@H]1OC(=O)[C@@](O)(CCCC(C)(C)O)CC(=O)NCc1ccco1)OCO4"
targetortestsystem = "RPMI8226 (multiple myeloma)"
result = "> 16 µg/mL"

[[record]]
molecule = "COC1=C[C@]23CCCN2CCc2cc4c(cc2[C@@H]3[C@@H]1OC(=O)[C@@](O)(CCCC(C)(C)O)CC(=O)N1CCCCC1)OCO4"
targetortestsystem = "RPMI8226 (multiple myeloma)"
result = "1.7 µg/mL"

[[record]]
molecule = "COC1=C[C@]23CCCN2CCc2cc4c(cc2[C@@H]3[C@@H]1OC(=O)[C@@](O)(CCCC(C)(C)O)CC(=O)N1CCN(C(C)C)CC1)OCO4"
targetortestsystem = "RPMI8226 (multiple myeloma)"
result = "0.47 µg/mL"

[[record]]
molecule = "COC1=C[C@]23CCCN2CCc2cc4c(cc2[C@@H]3[C@@H]1OC(=O)[C@@](O)(CCCC(C)(C)O)CC(=O)N1CCC(C#N)CC1)OCO4"
targetortestsystem = "RPMI8226 (multiple myeloma)"
result = "1.44 µg/mL"

[[record]]
molecule = "COC1=C[C@]23CCCN2CCc2cc4c(cc2[C@@H]3[C@@H]1OC(=O)[C@@](O)(CCCC(C)(C)O)CC(=O)N1CCOCC1)OCO4"
targetortestsystem = "RPMI8226 (multiple myeloma)"
result = "6.71 µg/mL"

[[record]]
molecule = "COC1=C[C@]23CCCN2CCc2cc4c(cc2[C@@H]3[C@@H]1OC(=O)[C@@](O)(CCCC(C)(C)O)CC(=O)N1CC=CC1)OCO4"
targetortestsystem = "RPMI8226 (multiple myeloma)"
result = "0.6 µg/mL"

[[record]]
molecule = "COC1=C[C@]23CCCN2CCc2cc4c(cc2[C@@H]3[C@@H]1OC(=O)[C@@](O)(CCCC(C)(C)O)CC(=O)N1CCSCC1)OCO4"
targetortestsystem = "RPMI8226 (multiple myeloma)"
result = "2.43 µg/mL"

[[record]]
molecule = "COC1=C[C@]23CCCN2CCc2cc4c(cc2[C@@H]3[C@@H]1OC(=O)[C@@](O)(CCCC(C)(C)O)CC(=O)N1CCN(c2ccccn2)CC1)OCO4"
targetortestsystem = "RPMI8226 (multiple myeloma)"
result = "0.48 µg/mL"

[[record]]
molecule = "COC1=C[C@]23CCCN2CCc2cc4c(cc2[C@@H]3[C@@H]1OC(=O)[C@@](O)(CCCC(C)(C)O)CC(=O)NCc1cccs1)OCO4"
targetortestsystem = "RPMI8226 (multiple myeloma)"
result = "2.1 µg/mL"

[[record]]
molecule = "CCN1CCN(C(=O)C[C@](O)(CCCC(C)(C)O)C(=O)O[C@@H]2C(OC)=C[C@]34CCCN3CCc3cc5c(cc3[C@H]24)OCO5)CC1"
targetortestsystem = "RPMI8226 (multiple myeloma)"
result = "1.96 µg/mL"

[[record]]
molecule = "COC1=C[C@]23CCCN2CCc2cc4c(cc2[C@@H]3[C@@H]1OC(=O)[C@@](O)(CCCC(C)(C)O)CC(=O)N1CCCC(C)C1)OCO4 (some centres unmarked)"
targetortestsystem = "RPMI8226 (multiple myeloma)"
result = "1.22 µg/mL"

[[record]]
molecule = "COC1=C[C@]23CCCN2CCc2cc4c(cc2[C@@H]3[C@@H]1OC(=O)[C@@](O)(CCCC(C)(C)O)CC(=O)Nc1nccs1)OCO4"
targetortestsystem = "RPMI8226 (multiple myeloma)"
result = "11 µg/mL"

[[record]]
molecule = "COC1=C[C@]23CCCN2CCc2cc4c(cc2[C@@H]3[C@@H]1OC(=O)[C@@](O)(CCCC(C)(C)O)CC(=O)NC1CCCCC1)OCO4"
targetortestsystem = "RPMI8226 (multiple myeloma)"
result = "0.042 µg/mL"


All figures here come from patent US9676789B2.
